# MEASURED ON: Ghrelin receptor (Homo sapiens, UniProt Q92847)
# Sequence (Q92847 whole entry): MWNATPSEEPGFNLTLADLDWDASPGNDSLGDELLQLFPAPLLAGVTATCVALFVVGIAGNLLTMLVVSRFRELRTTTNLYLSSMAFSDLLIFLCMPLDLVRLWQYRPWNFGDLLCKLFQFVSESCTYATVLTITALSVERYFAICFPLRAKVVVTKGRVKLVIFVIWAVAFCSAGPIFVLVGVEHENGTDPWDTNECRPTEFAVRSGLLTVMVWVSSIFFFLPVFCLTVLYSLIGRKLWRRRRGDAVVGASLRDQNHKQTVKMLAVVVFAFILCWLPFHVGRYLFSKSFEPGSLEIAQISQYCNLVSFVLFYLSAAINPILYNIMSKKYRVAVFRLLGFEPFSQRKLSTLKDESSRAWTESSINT
# TEST DESCRIPTION: Receptor Selection and Amplification Technology (R-SAT) assay
# Type: cell-based
# Design: expressed in transfected cells; host or cells: NIH3T3
# PARTICULARS: percent inhibition at saturating ligand, normalized to reference ligand Substance P analog = 100%; read-out: RSAT Eff(%)
Emax by entry:

{"MOLECULE": "CC(=O)c1cn(CCCN2CCCC(Cc3ccccc3Cl)C2)c2c(C#N)cccc12 (centres unmarked)", "MEASURED ON": "Ghrelin receptor (Homo sapiens, UniProt Q92847)", "Emax (%)": 22}
{"MOLECULE": "CC(=O)CCc1cn(CCCN2C3CCC2CC(OCC2CC2)C3)c2ccccc12 (centres unmarked)", "MEASURED ON": "Ghrelin receptor (Homo sapiens, UniProt Q92847)", "Emax (%)": 103}
{"MOLECULE": "CC(=O)c1cn(CCCN2C3CCC2CC(Oc2ccc(Cl)cc2)C3)c2c(Cl)cccc12 (centres unmarked)", "MEASURED ON": "Ghrelin receptor (Homo sapiens, UniProt Q92847)", "Emax (%)": 104}
{"MOLECULE": "CC(C)CC(=O)c1cn(CCCN2CCC(C(=O)c3ccccc3)CC2)c2ccccc12", "MEASURED ON": "Ghrelin receptor (Homo sapiens, UniProt Q92847)", "Emax (%)": 67}
{"MOLECULE": "CCc1cccc2c(C(C)=O)cn(CCCN3CCCN(CCc4ccccc4)CC3)c12", "MEASURED ON": "Ghrelin receptor (Homo sapiens, UniProt Q92847)", "Emax (%)": 103}
{"MOLECULE": "COc1cccc2c(C(C)=O)cn(CCCN3CCN(c4ccc(C(F)(F)F)cc4)CC3)c12", "MEASURED ON": "Ghrelin receptor (Homo sapiens, UniProt Q92847)", "Emax (%)": 92}
{"MOLECULE": "CC(=O)c1cn(CCCN2CCC(c3nc4ccccc4s3)CC2)c2ccccc12 [drawing 462]", "MEASURED ON": "Ghrelin receptor (Homo sapiens, UniProt Q92847)", "Emax (%)": 115}
{"MOLECULE": "CCCCC(=O)c1cn(CCCN2CCC(c3ccccc3OC)CC2)c2ccc(OC)cc12", "MEASURED ON": "Ghrelin receptor (Homo sapiens, UniProt Q92847)", "Emax (%)": 101}
{"MOLECULE": "CCCCC[C@H]1C[C@H]2CC[C@@H](C1)N2CCCn1cc(C(C)=O)c2cccc(Br)c21", "MEASURED ON": "Ghrelin receptor (Homo sapiens, UniProt Q92847)", "Emax (%)": 81}
{"MOLECULE": "O=C(c1cn(CCCN2CCC(Oc3ccc(Cl)cc3)CC2)c2ccccc12)C(F)(F)F", "MEASURED ON": "Ghrelin receptor (Homo sapiens, UniProt Q92847)", "Emax (%)": 77}
{"MOLECULE": "COc1ccc2c(c1)c(C(C)=O)cn2CCCN1CCC(c2ccccc2OC)CC1", "MEASURED ON": "Ghrelin receptor (Homo sapiens, UniProt Q92847)", "Emax (%)": 66}
{"MOLECULE": "CC(=O)c1cn(CCCN2CCN(c3ncc(C(F)(F)F)cc3Cl)CC2)c2ncccc12", "MEASURED ON": "Ghrelin receptor (Homo sapiens, UniProt Q92847)", "Emax (%)": 91}
{"MOLECULE": "CC(C)CC(=O)c1cn(CCCN2CCC(Oc3ccc(Cl)cc3)CC2)c2ccccc12", "MEASURED ON": "Ghrelin receptor (Homo sapiens, UniProt Q92847)", "Emax (%)": 112}
{"MOLECULE": "COc1cccc2c(C(C)=O)cn(CCCN3CCN(c4ccc(C(F)(F)F)cc4[N+](=O)[O-])CC3)c12", "MEASURED ON": "Ghrelin receptor (Homo sapiens, UniProt Q92847)", "Emax (%)": 94}
{"MOLECULE": "COc1cccc2c(C#N)cn(CCCN3CCCN(Cc4ccc(F)cc4)CC3)c12", "MEASURED ON": "Ghrelin receptor (Homo sapiens, UniProt Q92847)", "Emax (%)": 109}
{"MOLECULE": "COc1cccc2c(C#N)cn(CCCN3C4CCC3CC(Oc3ccccc3Cl)C4)c12 (centres unmarked)", "MEASURED ON": "Ghrelin receptor (Homo sapiens, UniProt Q92847)", "Emax (%)": 114}
{"MOLECULE": "CCCON1CCN(CCCn2cc(C(=O)C(F)(F)F)c3ccccc32)CC1", "MEASURED ON": "Ghrelin receptor (Homo sapiens, UniProt Q92847)", "Emax (%)": 99}
{"MOLECULE": "CC(=O)c1cn(CCCN2CCCN(CCc3ccccc3)CC2)c2c(Cl)cccc12", "MEASURED ON": "Ghrelin receptor (Homo sapiens, UniProt Q92847)", "Emax (%)": 96}
{"MOLECULE": "COc1cccc2c(C(C)=O)cn(CCCN3CCC4CCCCC4C3)c12 (centres unmarked)", "MEASURED ON": "Ghrelin receptor (Homo sapiens, UniProt Q92847)", "Emax (%)": 69}
{"MOLECULE": "CC(=O)c1cn(CCCCN2C3CCC2CC(Oc2ccc(Cl)cc2)C3)c2ccccc12 (centres unmarked)", "MEASURED ON": "Ghrelin receptor (Homo sapiens, UniProt Q92847)", "Emax (%)": 119}
